target: DNA topoisomerase 2-alpha (Homo sapiens); assay: Inhibition of human topoisomerase 2-mediated decatenation of kinetoplast DNA at 100 uM after 15 mins by agarose gel electrophoresis
Activity calls are given as the source filed them. The calls are words filed in the database; no cut-off is given here.
Classes used: yes (1) (active), no (0) (inactive)

# compound, systemUnderTest, classification
records = [
    ("COc1cc2c(O[C@@H]3OC[C@@H](O)[C@H](O)[C@H]3O)c3c(c(-c4ccc5c(c4)OCO5)c2cc1OC)C(=O)OC3", "DNA topoisomerase 2-alpha (Homo sapiens)", "no (0)"),
    ("COC[C@H]1O[C@@H](Oc2c3c(c(-c4ccc5c(c4)OCO5)c4cc(OC)c(OC)cc24)C(=O)OC3)[C@H](O)[C@@H](O)[C@H]1O", "DNA topoisomerase 2-alpha (Homo sapiens)", "no (0)"),
    ("COc1cc2c(O[C@@H]3O[C@H](COCc4ccccc4)[C@@H](O)[C@H](O)[C@H]3O)c3c(c(-c4ccc5c(c4)OCO5)c2cc1OC)C(=O)OC3", "DNA topoisomerase 2-alpha (Homo sapiens)", "yes (1)"),
    ("COc1cc2c(O[C@@H]3O[C@H](C)[C@H](O)[C@H](O)[C@H]3O)c3c(c(-c4ccc5c(c4)OCO5)c2cc1OC)C(=O)OC3", "DNA topoisomerase 2-alpha (Homo sapiens)", "no (0)"),
    ("COc1cc2c(O[C@@H]3O[C@@H]4CO[C@@H](C(C)C)O[C@H]4[C@H](O)[C@H]3O)c3c(c(-c4ccc5c(c4)OCO5)c2cc1OC)C(=O)OC3", "DNA topoisomerase 2-alpha (Homo sapiens)", "yes (1)"),
    ("COC[C@H]1O[C@@H](Oc2c3c(c(-c4ccc5c(c4)OCO5)c4cc(OC)c(OC)cc24)C(=O)OC3)[C@H](O)[C@@H](O)[C@@H]1O", "DNA topoisomerase 2-alpha (Homo sapiens)", "no (0)"),
    ("COc1cc2c(O[C@@H]3O[C@H](C)[C@@H](OC(C)=O)[C@H](OC(C)=O)[C@H]3OC(C)=O)c3c(c(-c4ccc5c(c4)OCO5)c2cc1OC)C(=O)OC3", "DNA topoisomerase 2-alpha (Homo sapiens)", "yes (1)"),
    ("COc1cc2c(O[C@@H]3O[C@H](CO)[C@H](O)[C@H](O)[C@H]3O)c3c(c(-c4ccc5c(c4)OCO5)c2cc1OC)C(=O)OC3", "DNA topoisomerase 2-alpha (Homo sapiens)", "no (0)"),
    ("COc1cc2c(O[C@@H]3O[C@@H]4CO[C@@H](C)O[C@H]4[C@H](O)[C@H]3O)c3c(c(-c4ccc5c(c4)OCO5)c2cc1OC)C(=O)OC3", "DNA topoisomerase 2-alpha (Homo sapiens)", "yes (1)"),
    ("COc1cc2c(O[C@@H]3O[C@@H]4COC(C)(C)O[C@H]4[C@H](O)[C@H]3O)c3c(c(-c4ccc5c(c4)OCO5)c2cc1OC)C(=O)OC3", "DNA topoisomerase 2-alpha (Homo sapiens)", "yes (1)"),
    ("COc1cc2c(O[C@@H]3O[C@H](C)[C@@H](O)[C@H](O)[C@H]3O)c3c(c(-c4ccc5c(c4)OCO5)c2cc1OC)C(=O)OC3", "DNA topoisomerase 2-alpha (Homo sapiens)", "no (0)"),
    ("COc1cc2c(O[C@H]3O[C@@H](C)[C@@H](OC(C)=O)[C@@H](O)[C@@H]3O)c3c(c(-c4ccc5c(c4)OCO5)c2cc1OC)C(=O)OC3", "DNA topoisomerase 2-alpha (Homo sapiens)", "yes (1)"),
    ("COc1cc([C@@H]2c3cc4c(cc3[C@@H](O[C@@H]3O[C@@H]5CO[C@@H](C)O[C@H]5[C@H](O)[C@H]3O)[C@H]3COC(=O)[C@H]23)OCO4)cc(OC)c1O [ETOPOSIDE]", "DNA topoisomerase 2-alpha (Homo sapiens)", "no (0)"),
    ("COc1cc2c(O)c3c(c(-c4ccc5c(c4)OCO5)c2cc1OC)C(=O)OC3", "DNA topoisomerase 2-alpha (Homo sapiens)", "yes (1)"),
    ("COc1cc2c(O[C@H]3O[C@@H](C)[C@@H](O)[C@@H](O)[C@@H]3O)c3c(c(-c4ccc5c(c4)OCO5)c2cc1OC)C(=O)OC3", "DNA topoisomerase 2-alpha (Homo sapiens)", "no (0)"),
    ("COc1cc2c(O[C@@H]3O[C@H](CO)[C@@H](O)[C@H](O)[C@H]3O)c3c(c(-c4ccc5c(c4)OCO5)c2cc1OC)C(=O)OC3", "DNA topoisomerase 2-alpha (Homo sapiens)", "no (0)"),
    ("COc1cc2c(O[C@@H]3OC[C@H](O)[C@H](O)[C@H]3O)c3c(c(-c4ccc5c(c4)OCO5)c2cc1OC)C(=O)OC3", "DNA topoisomerase 2-alpha (Homo sapiens)", "no (0)"),
]
